system: TG-LAM-145-P0; assay: cells; design: species or system primary AML patient blasts; settings: 48 h, read-out: IC50 (µM) / AB8939
MEASURE: IC50 (µM)
Only the number, expressed in µM, is required.

According to the records, this compound CCOCc1ccc(C)c(Nc2ncc(-c3ccc(N4CCNC4=O)cc3)o2)c1 [AB8939] displays IC50 of 1.8

----------
system: A-549; assay: cells; conditions: Homo sapiens, A549, 144 h, read-out: AB8939
MEASURE: pIC50
Reminder that pIC50 means the negative base-10 logarithm of the concentration expressed in mol/L.

So the reported pIC50 for CCOCc1ccc(C)c(Nc2ncc(-c3ccc(N4CCNC4=O)cc3)o2)c1 [AB8939] , on A-549, turned out to be 9.00

----------
test system: HRT-18; assay: cells; conditions: Homo sapiens, HRT-18, 144 h, read-out: AB8939
MEASURE: IC50 (nM)
Only the number, expressed in nM, is required.

According to the records, this compound `CCOCc1ccc(C)c(Nc2ncc(-c3ccc(N4CCNC4=O)cc3)o2)c1` displays IC50 of 1

----------
tested on: U87-MG; test: cells; conditions: Homo sapiens, U-87 MG, 144 h, read-out: Unesbulin (PTC-596)
MEASURE: IC50 (nM)
Only the number, expressed in nM, is required.

According to the records, this compound `Cc1nc2ccc(F)cc2n1-c1nc(N)c(F)c(Nc2ccc(C(F)(F)F)cc2)n1` displays IC50 of 11

----------
tested on: HUT-78; experiment: cells; settings: Homo sapiens, HuT78, 144 h, read-out: Lexibulin (CYT997)
MEASURE: pIC50
Reminder that pIC50 means the negative base-10 logarithm of the concentration expressed in mol/L.

According to the records, this compound `CCC[C@H](Nc1nc(-c2ccc(NC(=O)NCC)c(OC)c2)ncc1C)c1cccnc1` displays pIC50 of 8.22

----------
tested on: ACHN; experiment: cells; conditions: Homo sapiens, ACHN, 144 h, read-out: Lexibulin (CYT997)
MEASURE: pIC50
Reminder that pIC50 means the negative base-10 logarithm of the concentration expressed in mol/L.

So the reported pIC50 for `CCC[C@H](Nc1nc(-c2ccc(NC(=O)NCC)c(OC)c2)ncc1C)c1cccnc1` , on ACHN, turned out to be 7.44

----------
tested on: PC-3; test: cells; conditions: Homo sapiens, PC-3, 144 h, read-out: Lexibulin (CYT997)
MEASURE: pIC50
Reminder that pIC50 means the negative base-10 logarithm of the concentration expressed in mol/L.

According to the records, this molecule `CCC[C@H](Nc1nc(-c2ccc(NC(=O)NCC)c(OC)c2)ncc1C)c1cccnc1` displays pIC50 of 6.85

----------
system: NOMO-1; assay: cells; settings: Homo sapiens, NOMO-1, 144 h, read-out: AB8939
MEASURE: IC50 (nM)
Only the number, expressed in nM, is required.

According to the records, this compound `CCOCc1ccc(C)c(Nc2ncc(-c3ccc(N4CCNC4=O)cc3)o2)c1` displays IC50 of 46

----------
system: TG-LAM-138-P0; assay: cells; design: species or system primary AML patient blasts; details: 48 h, read-out: IC50 (µM) / AzaC
MEASURE: IC50

According to the records, this compound Nc1ncn([C@@H]2O[C@H](CO)[C@@H](O)[C@H]2O)c(=O)n1 [5-azacytidine] displays IC50 of > 50 µM

Data origin, for the record: paper doi:10.64898/2025.12.10.692519v1
